# reported Exch II (%); entries follow
TARGET UNDER TEST: T1, HLA-A*02:01 class I complex (conditional p*HLA*02:01, biotinylated heavy chain with beta2-microglobulin) (human, biotinylated heavy chain)
T1 construct: UV-labile peptide p* is cleaved and exchanged for the test peptide; also called HLA 2.1
PROCEDURE SUMMARY: UV peptide exchange, HLA class I ELISA, % of Pos peptide;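 note: Streptavidin-captured HLA complexes after exchange detected via HRP anti-human B2M antibody, absorbance read, colour scales with intact complex, normalized to exchange control peptide as 100%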
Enter your answer as a number in %; do not include the unit.

Reference set, count: 3
BINDER	UNITS OF MEASURE	Exch II (%)
YMDSGIHFI (also called M031) [CTNNB1_S37F14 mimic peptide YMDSGIHFI]	%	116
SMTCTYFPV (also called M213) [TP53_S127F7 mimic peptide SMTCTYFPV]	%	93.3
LLGRNSFEL (also called M221) [TP53_V272M2 mimic peptide LLGRNSFEL]	%	95.7

Please find the next binder below.
I'd like to know its Exch II (%). The binder in question is MLFSKRHWV (also called M012) [CIC_R215W6 mimic peptide MLFSKRHWV] 73.8
